# credit: paper PMC6279937

- TARGET: AroH (Aspergillus fumigatus, UniProt Q4X0F7)
- Construct: entire AroH cDNA with C-terminal 6xHis tag (kept) in pET22b, synthesized by GenScript, expressed in E. coli BL21(DE3); subunit mass 59480 Da; homodimer with 1 PLP per subunit
- Sequence (Q4X0F7 1-526): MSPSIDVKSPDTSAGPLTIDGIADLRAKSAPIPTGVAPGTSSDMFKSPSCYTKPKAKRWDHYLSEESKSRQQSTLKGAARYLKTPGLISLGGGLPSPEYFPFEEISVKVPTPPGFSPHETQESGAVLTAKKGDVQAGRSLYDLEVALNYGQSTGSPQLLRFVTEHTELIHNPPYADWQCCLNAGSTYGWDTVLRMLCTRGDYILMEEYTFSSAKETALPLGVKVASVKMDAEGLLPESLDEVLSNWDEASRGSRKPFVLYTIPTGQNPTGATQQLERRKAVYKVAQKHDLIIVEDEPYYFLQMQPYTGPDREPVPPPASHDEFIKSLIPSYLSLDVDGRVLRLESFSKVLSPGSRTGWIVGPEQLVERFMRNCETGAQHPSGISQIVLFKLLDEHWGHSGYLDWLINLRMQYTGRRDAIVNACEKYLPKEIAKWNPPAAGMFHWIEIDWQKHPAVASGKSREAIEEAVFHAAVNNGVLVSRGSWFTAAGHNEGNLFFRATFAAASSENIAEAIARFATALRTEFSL
- ASSAY NAME: intrinsic fluorescence quenching of apoenzyme, tight-binding fit
- CONDITION SUMMARY: read-out: KD(PLP)
VALUE TYPE: Kd (nM)
Give the value, in units of nM, as a plain number.

Param item = `Cc1ncc(COP(=O)(O)O)c(C=O)c1O` ; retrieve measured Kd.
100
